Target: Histone deacetylase 2 (Homo sapiens)
Sequence (Q92769 whole entry): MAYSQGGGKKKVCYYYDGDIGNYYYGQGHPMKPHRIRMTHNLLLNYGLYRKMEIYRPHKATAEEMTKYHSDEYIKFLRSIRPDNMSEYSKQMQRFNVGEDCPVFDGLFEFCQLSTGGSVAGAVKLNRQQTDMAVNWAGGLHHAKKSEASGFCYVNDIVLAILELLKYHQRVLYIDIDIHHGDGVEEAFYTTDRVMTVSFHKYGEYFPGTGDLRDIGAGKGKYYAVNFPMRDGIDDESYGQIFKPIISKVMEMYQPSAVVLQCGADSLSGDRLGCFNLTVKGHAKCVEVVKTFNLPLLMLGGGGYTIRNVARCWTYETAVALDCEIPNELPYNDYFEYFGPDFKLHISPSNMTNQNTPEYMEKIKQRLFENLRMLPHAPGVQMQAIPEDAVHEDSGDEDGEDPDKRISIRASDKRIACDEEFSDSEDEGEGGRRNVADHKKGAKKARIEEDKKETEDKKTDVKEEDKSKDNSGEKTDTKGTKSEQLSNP
Test: Inhibition of human recombinant HDAC2 using (FAM)-labeled acetylated peptide substrate at 1 uM incubated for 17 hrs by fluorescence based analysis
Experimental Endpoint: IC50

Item `Nc1ccccc1NC(=O)CCCCCCC(=O)Nc1cccc(-c2cn(-c3ccccc3)nn2)c1` has what recorded IC50? > 30 µM

---

Target: Histone deacetylase 3 (Homo sapiens)
Sequence (O15379 whole entry): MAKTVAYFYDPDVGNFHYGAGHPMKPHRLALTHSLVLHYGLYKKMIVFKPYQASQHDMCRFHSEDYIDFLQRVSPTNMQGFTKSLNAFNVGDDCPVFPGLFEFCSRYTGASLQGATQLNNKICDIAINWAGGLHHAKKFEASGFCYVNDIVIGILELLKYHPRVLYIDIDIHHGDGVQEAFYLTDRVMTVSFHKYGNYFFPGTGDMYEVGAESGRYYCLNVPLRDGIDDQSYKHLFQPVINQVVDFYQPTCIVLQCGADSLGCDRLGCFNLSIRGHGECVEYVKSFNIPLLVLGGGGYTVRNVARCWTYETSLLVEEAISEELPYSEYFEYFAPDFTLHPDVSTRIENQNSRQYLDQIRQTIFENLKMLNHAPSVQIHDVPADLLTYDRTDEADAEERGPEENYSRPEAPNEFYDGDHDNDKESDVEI
Assay: Inhibition of HDAC3 (unknown origin) using acetylated 7-amino-4-methylcoumarin (AMC) as peptide substrate measured after 20 mins by fluorescence based analysis
pIC50: −log10 of the molar value.
Listed next: entries and their corresponding pIC50.

Solved cases (2 shown):
| Compound Structure String | Experimental Endpoint | Value Observed |
| --- | --- | --- |
| CCCCNNC(=O)c1ccccc1 | pIC50 | < 4.30 |
| O=C(NNCCCc1ccccc1)c1ccc(Br)cc1 | pIC50 | 4.62 |

Item `O=C(NNCCCC1CCCC1)c1ccc(Br)cc1` has what recorded pIC50? < 4.30
